# Test system: Human fibroblasts
# assay_protocol: UVA cytophotoprotection, anti-oxidative effect (MDA released, cell proteins, GSH) on UVA-irradiated human fibroblasts
# Assay type: cell-based
# condition: dose 0.003 % w/v; UVA 20 J/cm2; irradiated control = 100, not irradiated = 0

compound: CC1OC(OCC2OC(Oc3c(-c4ccc(O)c(O)c4)oc4cc(O)cc(O)c4c3=O)C(O)C(O)C2O)C(O)C(O)C1OC(=O)CCCCCCCCCCCCCCC(=O)OC1C(C)OC(OCC2OC(Oc3c(-c4ccc(O)c(O)c4)oc4cc(O)cc(O)c4c3=O)C(O)C(O)C2O)C(O)C1O (centres unmarked) [Dirutin hexadecandioate, dirutin hexadecandioate]
MDA released: 9 % against control

compound: CC1OC(OCC2OC(Oc3c(-c4ccc(O)c(O)c4)oc4cc(O)cc(O)c4c3=O)C(O)C(O)C2O)C(O)C(O)C1OC(=O)CCCCCCCCCCS (centres unmarked) [Rutin 11-mercaptoundecanoate]
MDA released: 0 % against control

compound: CC1OC(OCC2OC(Oc3c(-c4ccc(O)c(O)c4)oc4cc(O)cc(O)c4c3=O)C(O)C(O)C2O)C(O)C(O)C1OC(=O)CCCCCCCCCCCCCCC(=O)O (centres unmarked) [Rutin hexadecandioate, rutin hexadecandioate]
MDA released: 46 % against control

compound: C[C@@H]1O[C@@H](OC[C@H]2O[C@@H](Oc3c(-c4ccc(O)c(O)c4)oc4cc(O)cc(O)c4c3=O)[C@H](O)[C@@H](O)[C@@H]2O)[C@H](O)[C@H](O)[C@H]1O [Rutin, reference compound]
MDA released: 79 % against control

compound: CC1OC(OCC2OC(Oc3c(-c4ccc(O)c(O)c4)oc4cc(O)cc(O)c4c3=O)C(O)C(O)C2O)C(O)C(O)C1OC(=O)CCCCCCCC(=O)O (centres unmarked) [Rutin azelaiate]
MDA released: 64 % against control

###

# System: Human fibroblasts
# assay_protocol: UVA cytophotoprotection, anti-oxidative effect (MDA released, cell proteins, GSH) on UVA-irradiated human fibroblasts
# Type: cell-based
# condition: dose 0.003 % w/v; UVA 20 J/cm2; irradiated control = 78, not irradiated = 100
# key: entry, value: Cell GSH/protein ratio
experimental_readout: Cell GSH/protein ratio (% against control)

compound: CC1OC(OCC2OC(Oc3c(-c4ccc(O)c(O)c4)oc4cc(O)cc(O)c4c3=O)C(O)C(O)C2O)C(O)C(O)C1OC(=O)CCCCCCCCCCCCCCC(=O)O (centres unmarked) [Rutin hexadecandioate, rutin hexadecandioate]
numeric_result: 101
//
compound: CC1OC(OCC2OC(Oc3c(-c4ccc(O)c(O)c4)oc4cc(O)cc(O)c4c3=O)C(O)C(O)C2O)C(O)C(O)C1OC(=O)CCCCCCCCCCS (centres unmarked) [Rutin 11-mercaptoundecanoate]
numeric_result: 283
//
compound: CC1OC(OCC2OC(Oc3c(-c4ccc(O)c(O)c4)oc4cc(O)cc(O)c4c3=O)C(O)C(O)C2O)C(O)C(O)C1OC(=O)CCCCCCCC(=O)O (centres unmarked) [Rutin azelaiate]
numeric_result: 64
//
compound: CC1OC(OCC2OC(Oc3c(-c4ccc(O)c(O)c4)oc4cc(O)cc(O)c4c3=O)C(O)C(O)C2O)C(O)C(O)C1OC(=O)CCCCCCCCCCCCCCC(=O)OC1C(C)OC(OCC2OC(Oc3c(-c4ccc(O)c(O)c4)oc4cc(O)cc(O)c4c3=O)C(O)C(O)C2O)C(O)C1O (centres unmarked) [Dirutin hexadecandioate, dirutin hexadecandioate]
numeric_result: 154
//
compound: C[C@@H]1O[C@@H](OC[C@H]2O[C@@H](Oc3c(-c4ccc(O)c(O)c4)oc4cc(O)cc(O)c4c3=O)[C@H](O)[C@@H](O)[C@@H]2O)[C@H](O)[C@H](O)[C@H]1O [Rutin, reference compound]
numeric_result: 72
